The origin of these recorded values is patent US20090118135A1.

FRatio by entry:
# system: GST-Bfl-1 (Homo sapiens)
# Construct: lacking their C-terminal transmembrane domains (about the last 20 amino acids) (“ΔTM”); made in house; host or cells: XL-1 Blue E. coli, pGEX 4T-1
# Sequence (Q16548 1-155 limits assumed): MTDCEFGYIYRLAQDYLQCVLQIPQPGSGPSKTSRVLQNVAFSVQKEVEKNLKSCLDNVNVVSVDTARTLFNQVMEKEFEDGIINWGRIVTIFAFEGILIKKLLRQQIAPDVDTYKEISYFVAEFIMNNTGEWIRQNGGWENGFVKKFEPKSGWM
# testSummary: Bfl-1/FITC-Bid BH3 competitive fluorescence polarization assay
# Type: binding
# assaySetup: primary HTS hits, MLSCN library (PubChem SIDs), Table 5B
# respond with the number and nothing more

Sample answers from the record:
Cc1nc(NC(=O)c2ccco2)sc1-c1csc(Nc2ccc(Cl)cc2Cl)n1    0.7
C=CCn1c(SCC(=O)OC)nc2sc3c(c2c1=O)CCN(C)C3    1.23
Cc1cc2cc(CN(Cc3ccco3)S(=O)(=O)c3c(C)ccc4nsnc34)c(O)nc2cc1C    1.29
CC(=O)c1sc2nc(SCC(=O)N3CCCCC3)nc(O)c2c1C    0.82

Please examine the following record next.
Which measured FRatio belongs to COc1ccc(N2Cc3cccc(C(=O)O)c3C2=O)cc1 , tested on GST-Bfl-1 (Homo sapiens)? 0.86
